assay: Pharmacokinetics of rivaroxaban in rats after avitinib or gefitinib pretreatment
Format: in vivo, Sprague–Dawley (SD) rats
condition_notes: male, Sprague-Dawley, rat, plasma, oral, plasma concentration of rivaroxaban, 8 h; avitinib group, Mean
assay_endpoint: concentration at 8 h (ng/mL)

compound | recorded_result
O=C(NC[C@H]1CN(c2ccc(N3CCOCC3=O)cc2)C(=O)O1)c1ccc(Cl)s1 [rivaroxaban, Rivaroxaban] | 448

----------
assay: Pharmacokinetics of rivaroxaban in rats after avitinib or gefitinib pretreatment
Format: in vivo, Sprague–Dawley (SD) rats
condition_notes: male, Sprague-Dawley, rat, plasma, po, 10 mg/kg, avitinib group, Mean; read-out: AUC(0-t)

compound_structure_string | AUC(0-t) (ng·h/mL)
O=C(NC[C@H]1CN(c2ccc(N3CCOCC3=O)cc2)C(=O)O1)c1ccc(Cl)s1 | 9000

----------
assay: Pharmacokinetics of rivaroxaban in rats after avitinib or gefitinib pretreatment
Assay type: in vivo, Sprague–Dawley (SD) rats
condition_notes: male, Sprague-Dawley, rat, plasma, oral, rivaroxaban ng/ml mean, 吉非替尼 (gefitinib) group, mean (four rats), time 24

molecule | unit_label | concentration at 24 h
O=C(NC[C@H]1CN(c2ccc(N3CCOCC3=O)cc2)C(=O)O1)c1ccc(Cl)s1 [rivaroxaban, Rivaroxaban] | ng/mL | 144

----------
assay: Pharmacokinetics of rivaroxaban in rats after avitinib or gefitinib pretreatment
Type: in vivo, Sprague–Dawley (SD) rats
condition_notes: male, Sprague-Dawley, rat, plasma, oral, rivaroxaban ng/ml, 吉非替尼 (gefitinib) group, individual rats 7-12, time 4
assay_endpoint: concentration at 4 h (ng/mL)

compound_structure_string | unit_label | recorded_result
O=C(NC[C@H]1CN(c2ccc(N3CCOCC3=O)cc2)C(=O)O1)c1ccc(Cl)s1 | ng/mL | 11300

----------
assay: Pharmacokinetics of rivaroxaban in rats after avitinib or gefitinib pretreatment
Type: in vivo, Sprague–Dawley (SD) rats
condition_notes: male, Sprague-Dawley, rat, plasma, po, 10 mg/kg, gefitinib group, Mean; read-out: MRT(0-∞)
Method: Eighteen male Sprague–Dawley (SD) rats weighing 300 ± 20 g were provided by the Experimental Animal Center of Wenzhou Medical University (Wenzhou, China) and kept under controlled conditions at a temperature of 23 ± 2 °C, relative humidity of 50 ± 10%, and 12 h light–dark cycle. Eighteen male SD rats were randomly assigned to three groups: avitinib, gefitinib, and control, with six rats per group. […] All assays were performed in triplicate, and the results are expressed as mean ± standard deviation. […]

compound | MRT inf (h)
O=C(NC[C@H]1CN(c2ccc(N3CCOCC3=O)cc2)C(=O)O1)c1ccc(Cl)s1 [rivaroxaban, Rivaroxaban] | 8.23

----------
assay: Pharmacokinetics of rivaroxaban in rats after avitinib or gefitinib pretreatment
Format: in vivo, Sprague–Dawley (SD) rats
condition_notes: male, Sprague-Dawley, rat, plasma, oral, rivaroxaban ng/ml mean, 吉非替尼 (gefitinib) group, mean of rats 7-12, time 0.25

molecule | concentration at 0.25 h
O=C(NC[C@H]1CN(c2ccc(N3CCOCC3=O)cc2)C(=O)O1)c1ccc(Cl)s1 [rivaroxaban, Rivaroxaban] | 1740 ng/mL

----------
assay: Pharmacokinetics of rivaroxaban in rats after avitinib or gefitinib pretreatment
Format: in vivo, Sprague–Dawley (SD) rats
condition_notes: male, Sprague-Dawley, rat, plasma, oral, plasma concentration of rivaroxaban, 4 h; gefitinib group, Mean

compound_structure_string | concentration at 4 h / ng/mL
O=C(NC[C@H]1CN(c2ccc(N3CCOCC3=O)cc2)C(=O)O1)c1ccc(Cl)s1 | 7800

----------
assay: Pharmacokinetics of rivaroxaban in rats after avitinib or gefitinib pretreatment
Assay type: in vivo, Sprague–Dawley (SD) rats
condition_notes: male, Sprague-Dawley, rat, plasma, oral, rivaroxaban ng/ml mean, 艾维替尼 (avitinib) group, mean (one rat only), time 24

compound | concentration at 24 h [ng/mL]
O=C(NC[C@H]1CN(c2ccc(N3CCOCC3=O)cc2)C(=O)O1)c1ccc(Cl)s1 [rivaroxaban, Rivaroxaban] | 14.8

----------
assay: Pharmacokinetics of rivaroxaban in rats after avitinib or gefitinib pretreatment
Assay type: in vivo, Sprague–Dawley (SD) rats
condition_notes: male, Sprague-Dawley, rat, plasma, po, 10 mg/kg, avitinib group, Mean

compound_structure_string | AUC(0-inf) [ng·h/mL]
O=C(NC[C@H]1CN(c2ccc(N3CCOCC3=O)cc2)C(=O)O1)c1ccc(Cl)s1 | 9350

----------
assay: Pharmacokinetics of rivaroxaban in rats after avitinib or gefitinib pretreatment
Format: in vivo, Sprague–Dawley (SD) rats
condition_notes: male, Sprague-Dawley, rat, plasma, oral, 10 mg/kg, rivaroxaban ng/ml mean, control (rivaroxaban alone) group, mean of rats 13-18, time 6

compound_structure_string | unit_label | concentration at 6 h
O=C(NC[C@H]1CN(c2ccc(N3CCOCC3=O)cc2)C(=O)O1)c1ccc(Cl)s1 | ng/mL | 141

----------
assay: Pharmacokinetics of rivaroxaban in rats after avitinib or gefitinib pretreatment
Assay type: in vivo, Sprague–Dawley (SD) rats
condition_notes: male, Sprague-Dawley, rat, plasma, oral, rivaroxaban ng/ml, 吉非替尼 (gefitinib) group, individual rats 7-12, time 8

compound_structure_string | concentration at 8 h
O=C(NC[C@H]1CN(c2ccc(N3CCOCC3=O)cc2)C(=O)O1)c1ccc(Cl)s1 | 3270 ng/mL

----------
assay: Pharmacokinetics of rivaroxaban in rats after avitinib or gefitinib pretreatment
Format: in vivo, Sprague–Dawley (SD) rats
condition_notes: male, Sprague-Dawley, rat, plasma, oral, plasma concentration of rivaroxaban, 5 min; avitinib group, Mean
Experimental: Eighteen male Sprague–Dawley (SD) rats weighing 300 ± 20 g were provided by the Experimental Animal Center of Wenzhou Medical University (Wenzhou, China) and kept under controlled conditions at a temperature of 23 ± 2 °C, relative humidity of 50 ± 10%, and 12 h light–dark cycle. Eighteen male SD rats were randomly assigned to three groups: avitinib, gefitinib, and control, with six rats per group. […] All assays were performed in triplicate, and the results are expressed as mean ± standard deviation. […]

compound_structure_string | concentration at 5 min / ng/mL
O=C(NC[C@H]1CN(c2ccc(N3CCOCC3=O)cc2)C(=O)O1)c1ccc(Cl)s1 | 284

----------
assay: Pharmacokinetics of rivaroxaban in rats after avitinib or gefitinib pretreatment
Format: in vivo, Sprague–Dawley (SD) rats
condition_notes: male, Sprague-Dawley, rat, plasma, oral, plasma concentration of rivaroxaban, 6 h; gefitinib group, single rats No1-No6
assay_endpoint: concentration at 6 h (ng/mL)

compound_structure_string | assay_endpoint | recorded_result
O=C(NC[C@H]1CN(c2ccc(N3CCOCC3=O)cc2)C(=O)O1)c1ccc(Cl)s1 | concentration at 6 h | 5830

----------
assay: Pharmacokinetics of rivaroxaban in rats after avitinib or gefitinib pretreatment
Assay type: in vivo, Sprague–Dawley (SD) rats
condition_notes: male, Sprague-Dawley, rat, plasma, oral, plasma concentration of rivaroxaban, 0.25 h; gefitinib group, Mean
assay_endpoint: concentration at 0.25 h (ng/mL)

molecule | assay_endpoint | unit_label | recorded_result
O=C(NC[C@H]1CN(c2ccc(N3CCOCC3=O)cc2)C(=O)O1)c1ccc(Cl)s1 [rivaroxaban, Rivaroxaban] | concentration at 0.25 h | ng/mL | 1740

----------
assay: Pharmacokinetics of rivaroxaban in rats after avitinib or gefitinib pretreatment
Type: in vivo, Sprague–Dawley (SD) rats
condition_notes: male, Sprague-Dawley, rat, plasma, oral, rivaroxaban ng/ml, 吉非替尼 (gefitinib) group, individual rats 7-12, time 1

compound_structure_string | concentration at 1 h
O=C(NC[C@H]1CN(c2ccc(N3CCOCC3=O)cc2)C(=O)O1)c1ccc(Cl)s1 | 5910 ng/mL

----------
assay: Pharmacokinetics of rivaroxaban in rats after avitinib or gefitinib pretreatment
Type: in vivo, Sprague–Dawley (SD) rats
condition_notes: male, Sprague-Dawley, rat, plasma, po, 10 mg/kg, rats, rivaroxaban 10 mg/kg oral; gefitinib group (25 mg/kg pretreatment); read-out: CLz/F (converted)

compound | CL/F, mL/min/kg
O=C(NC[C@H]1CN(c2ccc(N3CCOCC3=O)cc2)C(=O)O1)c1ccc(Cl)s1 [rivaroxaban, Rivaroxaban] | 2.33

----------
assay: Pharmacokinetics of rivaroxaban in rats after avitinib or gefitinib pretreatment
Type: in vivo, Sprague–Dawley (SD) rats
condition_notes: male, Sprague-Dawley, rat, plasma, oral, rivaroxaban ng/ml, 吉非替尼 (gefitinib) group, individual rats 7-12, time 6
Procedure: Eighteen male Sprague–Dawley (SD) rats weighing 300 ± 20 g were provided by the Experimental Animal Center of Wenzhou Medical University (Wenzhou, China) and kept under controlled conditions at a temperature of 23 ± 2 °C, relative humidity of 50 ± 10%, and 12 h light–dark cycle. Eighteen male SD rats were randomly assigned to three groups: avitinib, gefitinib, and control, with six rats per group. […] All assays were performed in triplicate, and the results are expressed as mean ± standard deviation. […]
assay_endpoint: concentration at 6 h

compound_structure_string | recorded_result
O=C(NC[C@H]1CN(c2ccc(N3CCOCC3=O)cc2)C(=O)O1)c1ccc(Cl)s1 | 3980 ng/mL

----------
assay: Pharmacokinetics of rivaroxaban in rats after avitinib or gefitinib pretreatment
Assay type: in vivo, Sprague–Dawley (SD) rats
condition_notes: male, Sprague-Dawley, rat, plasma, po, 10 mg/kg, rats, rivaroxaban 10 mg/kg oral; gefitinib group (25 mg/kg pretreatment); read-out: Vz/F
assay_endpoint: Vd/F (L/kg)

compound_structure_string | assay_endpoint | recorded_result
O=C(NC[C@H]1CN(c2ccc(N3CCOCC3=O)cc2)C(=O)O1)c1ccc(Cl)s1 | Vd/F | 0.87
